# Tested on: DU-145 prostate
# Assay Details: NCI tumour cell line growth inhibition, 48 h
# reported TGI; entries follow

Here's what some known entries look like.
{"Compound": "Cn1c(=O)n(CC(Br)CBr)c(=O)n(CC(Br)CBr)c1=O (configuration not stated)", "TGI": "> 100 µM"}
{"Compound": "CC1=C(C(=O)OC(C)C)C(c2ccccc2[N+](=O)[O-])C(C(=O)OC(CO[N+](=O)[O-])CO[N+](=O)[O-])=C(C)N1 (configuration not stated)", "TGI": "> 100 µM"}
{"Compound": "COc1ccc2c3c(c(OCCCN(C)C)nc2c1)-c1ccc(Cl)cc1C3=O", "TGI": "19.1 µM"}
{"Compound": "C[N+]1(C)CN(c2ccccc2)C2(CCN(CCCC(=O)c3cccs3)CC2)C1=O", "TGI": "> 100 µM"}
{"Compound": "O=C1OC(CN2CCN(c3ccccc3)CC2)CN1C(=S)Nc1ccccc1 (configuration not stated)", "TGI": "> 100 µM"}
{"Compound": "COC(=O)C1(Cc2cccc(Cl)c2)CCCCCCN1C(=O)c1ccccc1 (configuration not stated)", "TGI": "37.7 µM"}
{"Compound": "C=C1C(C)C2C(Cc3ccccc3)NC(=O)C23C(OC(C)=O)/C=C/C(C)(O)CC(C)C/C=C/C3C1O (configuration not stated)", "TGI": "> 100 µM"}
{"Compound": "COc1cc(C2C(C#N)=C(N)OC3=C2C(=O)c2ccccc2C3=O)cc(OC)c1OC (configuration not stated)", "TGI": "15.9 µM"}

// query Recorded TGI of `C=CCn1c(=O)c(C)cn(/C(=C/C(=O)OCC)C(=O)OCC)c1=O` , please.
// result > 74.3 µM

// query # get_value(readout='TGI', item= CCC1(C)N=C(C(N)=O)c2ncn(N=C(C)C)c2N1 (configuration not stated) )
// result > 100 µM

// query # input compound: C[C@@H]1CCC2[C@@H](C)C(=O)O[C@@H]3C4C[C@@H]1[C@@]23OO[C@@]4(C)O (some centres not stated) ; wanted: its TGI
// result > 100 µM

// query Quick one: TGI of `COC/C=C\[C@@]1(O)CCCC[C@@H]1CC(OC)OC` ?
// result > 100 µM

// query Param item = `Clc1nc2c(-c3cccs3)ncnc2n1Cc1ccccc1` ; retrieve measured TGI.
// result 6.18 µM

// query If you can, please state the reported TGI value of `CC(=O)N1CC(F)(F)c2c(Sc3ncc(N4CCC5(CC4)COC[C@H]5N)nc3N)cccc21` .
// result > 100 µM

// query What does the record list as TGI for `O=C(/C=C/c1cccc(Cl)c1)c1ccc(Cl)cc1Cl` ?
// result 23 µM

// query Fill in: TGI of CN(Cc1cnc2nc(N)nc(N)c2n1)c1ccc(C(=O)NC(CCC(=O)O)C(=O)O)cc1 (configuration not stated) is ___
// result > 100 µM

// query Which TGI reading was recorded for the compound CSCCC(NC(c1ccccc1)c1ccccc1)[P+](=O)O (configuration not stated) ?
// result > 100 µM

// query Item `O=C(O)c1ccccc1/C=N\NC1=NCCN1` has what recorded TGI?
// result > 100 µM

// query Give its TGI value. Item: `CN(/N=C\c1ccc2ccccc2c1)C1=NCCCCN1`
// result > 100 µM
